- Tested on: KHYG-1 (IL-2 2.5 ng/mL)
- METHOD_DESCRIPTION: percent inhibition of viability; higher = more inhibition;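 also: normalised to DMSO-only wells as negative and benzethonium chloride as positive control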
- MEASUREMENT_CONTEXT: 72 h; 10 nM
MEASURED_PROPERTY: percent inhibition of viability (%)

{"MOLECULE": "CC(C)(C)NC(=O)[C@H]1CC[C@H]2[C@@H]3CC[C@H]4NC(=O)C=C[C@]4(C)[C@H]3CC[C@]12C [Finasteride] (max concentration tested 10000 nM)", "SYSTEM_TESTED": "KHYG-1 (IL-2 2.5 ng/mL)", "READOUT_UNITS": "%", "MEASURED": -5.37}
{"MOLECULE": "NC(=O)c1cccc(-c2cccc(OC(=O)NC3CCCCC3)c2)c1 [URB597] (max concentration tested 1000 nM)", "SYSTEM_TESTED": "KHYG-1 (IL-2 2.5 ng/mL)", "READOUT_UNITS": "%", "MEASURED": 2.01}
{"MOLECULE": "CC[C@H](C)C(=O)O[C@H]1C[C@@H](C)C=C2C=C[C@H](C)[C@H](CC[C@@H]3C[C@@H](O)CC(=O)O3)[C@H]21 [Lovastatin] (max concentration tested 10000 nM)", "SYSTEM_TESTED": "KHYG-1 (IL-2 2.5 ng/mL)", "READOUT_UNITS": "%", "MEASURED": -1.28}
{"MOLECULE": "CCCc1cc(C)[nH]c(=O)c1CNC(=O)c1cc(-c2ccnc(N3CCN(C)CC3)c2)cc2c1cnn2C(C)C [GSK343] (max concentration tested 10000 nM)", "SYSTEM_TESTED": "KHYG-1 (IL-2 2.5 ng/mL)", "READOUT_UNITS": "%", "MEASURED": 1.72}
{"MOLECULE": "Cc1ccc(-n2nc(C(C)(C)C)cc2NC(=O)Nc2ccc(OCCN3CCOCC3)c3ccccc23)cc1 [Doramapimod] (max concentration tested 10000 nM)", "SYSTEM_TESTED": "KHYG-1 (IL-2 2.5 ng/mL)", "READOUT_UNITS": "%", "MEASURED": 4.98}
{"MOLECULE": "Cn1c(Nc2ccc(C(F)(F)F)cc2)nc2cc(Oc3ccnc(-c4ncc(C(F)(F)F)[nH]4)c3)ccc21 [RAF265] (max concentration tested 1000 nM)", "SYSTEM_TESTED": "KHYG-1 (IL-2 2.5 ng/mL)", "READOUT_UNITS": "%", "MEASURED": -1.05}
{"MOLECULE": "C=CCN(/C=C1/C(=O)O[C@H](COC)[C@@]2(C)C1=C(O)C(=O)C1=C2[C@H](OC(C)=O)C[C@]2(C)C(=O)CC[C@@H]12)CC=C [Sonolisib] (max concentration tested 10000 nM)", "SYSTEM_TESTED": "KHYG-1 (IL-2 2.5 ng/mL)", "READOUT_UNITS": "%", "MEASURED": -9.75}
{"MOLECULE": "NC(=O)NO [Hydroxyurea] (max concentration tested 100000 nM)", "SYSTEM_TESTED": "KHYG-1 (IL-2 2.5 ng/mL)", "READOUT_UNITS": "%", "MEASURED": -10.9}
{"MOLECULE": "CC/C(=C(\\c1ccc(O)cc1)c1ccc(OCCN(C)C)cc1)c1ccccc1 [4-hydroxytamoxifen] (max concentration tested 10000 nM)", "SYSTEM_TESTED": "KHYG-1 (IL-2 2.5 ng/mL)", "READOUT_UNITS": "%", "MEASURED": 1.6}
{"MOLECULE": "Cc1ccc(Nc2nccc(N(C)c3ccc4c(C)n(C)nc4c3)n2)cc1S(N)(=O)=O [Pazopanib] (max concentration tested 10000 nM)", "SYSTEM_TESTED": "KHYG-1 (IL-2 2.5 ng/mL)", "READOUT_UNITS": "%", "MEASURED": -0.84}
{"MOLECULE": "CCN(CC)CCOc1ccc(C(=C(Cl)c2ccccc2)c2ccccc2)cc1 [Clomifene] (max concentration tested 10000 nM)", "SYSTEM_TESTED": "KHYG-1 (IL-2 2.5 ng/mL)", "READOUT_UNITS": "%", "MEASURED": -4.89}
{"MOLECULE": "N#Cc1ccc2[nH]c(O)c(-c3ccc(CN4CCOCC4)cn3)c2c1 [AZD-1080] (max concentration tested 10000 nM)", "SYSTEM_TESTED": "KHYG-1 (IL-2 2.5 ng/mL)", "READOUT_UNITS": "%", "MEASURED": -11.1}
{"MOLECULE": "Cc1csc(-c2nnc(Nc3ccc(Oc4ncccc4-c4ccnc(N)n4)cc3)c3ccccc23)c1 [AMG-900] (max concentration tested 1000 nM)", "SYSTEM_TESTED": "KHYG-1 (IL-2 2.5 ng/mL)", "READOUT_UNITS": "%", "MEASURED": 44.5}
{"MOLECULE": "CS(=O)(=O)N1CCN(Cc2cc3nc(-c4cccc5[nH]ncc45)nc(N4CCOCC4)c3s2)CC1 [Pictilisib] (max concentration tested 10000 nM)", "SYSTEM_TESTED": "KHYG-1 (IL-2 2.5 ng/mL)", "READOUT_UNITS": "%", "MEASURED": -3.66}
{"MOLECULE": "CCn1c(C(=O)N(C2CC2)C2CC2)cc2c3c(ncn3C)c(Nc3cc(C)n(C)n3)nc21 (max concentration tested 10000 nM)", "SYSTEM_TESTED": "KHYG-1 (IL-2 2.5 ng/mL)", "READOUT_UNITS": "%", "MEASURED": 5.02}
{"MOLECULE": "Clc1ccc(Nc2nnc(Cc3ccncc3)c3ccccc23)cc1 [Vatalanib] (max concentration tested 10000 nM)", "SYSTEM_TESTED": "KHYG-1 (IL-2 2.5 ng/mL)", "READOUT_UNITS": "%", "MEASURED": 0.74}
{"MOLECULE": "CCc1cnn2c(NCc3ccc[n+]([O-])c3)cc(N3CCCC[C@H]3CCO)nc12 [Dinaciclib] (max concentration tested 1000 nM)", "SYSTEM_TESTED": "KHYG-1 (IL-2 2.5 ng/mL)", "READOUT_UNITS": "%", "MEASURED": 42.5}
{"MOLECULE": "CC(C)n1cnc2c(NCCc3ccc(O)cc3)nc(-c3csc4ccccc34)nc21 [StemRegenin 1] (max concentration tested 10000 nM)", "SYSTEM_TESTED": "KHYG-1 (IL-2 2.5 ng/mL)", "READOUT_UNITS": "%", "MEASURED": -0.83}
{"MOLECULE": "Nc1ccccc1NC(=O)c1ccc(CNc2nccc(-c3cccnc3)n2)cc1 [Mocetinostat] (max concentration tested 10000 nM)", "SYSTEM_TESTED": "KHYG-1 (IL-2 2.5 ng/mL)", "READOUT_UNITS": "%", "MEASURED": -6.23}
{"MOLECULE": "CC1(C)NC(=O)N(c2ccc([N+](=O)[O-])c(C(F)(F)F)c2)C1=O [Nilutamide] (max concentration tested 10000 nM)", "SYSTEM_TESTED": "KHYG-1 (IL-2 2.5 ng/mL)", "READOUT_UNITS": "%", "MEASURED": -7.14}
{"MOLECULE": "Cn1cc(C2=C(c3cn(C4CCN(Cc5ccccn5)CC4)c4ccccc34)C(=O)NC2=O)c2ccccc21 [Enzastaurin] (max concentration tested 10000 nM)", "SYSTEM_TESTED": "KHYG-1 (IL-2 2.5 ng/mL)", "READOUT_UNITS": "%", "MEASURED": 1.8}
{"MOLECULE": "O=C(NC[C@H](O)CO)c1ccncc1Nc1ccc(I)cc1F [Pimasertib] (max concentration tested 10000 nM)", "SYSTEM_TESTED": "KHYG-1 (IL-2 2.5 ng/mL)", "READOUT_UNITS": "%", "MEASURED": 9.27}
{"MOLECULE": "N#CC1(c2ccc(NC(=O)c3cccnc3NCc3ccncc3)cc2)CCCC1 [Apatinib] (max concentration tested 10000 nM)", "SYSTEM_TESTED": "KHYG-1 (IL-2 2.5 ng/mL)", "READOUT_UNITS": "%", "MEASURED": 2.43}
{"MOLECULE": "Nc1nc(Cl)nc2c1ncn2[C@@H]1O[C@H](CO)[C@@H](O)[C@@H]1F [Clofarabine] (max concentration tested 10000 nM)", "SYSTEM_TESTED": "KHYG-1 (IL-2 2.5 ng/mL)", "READOUT_UNITS": "%", "MEASURED": -3.93}

* * *

- Tested on: IMC-1 (IL-2 20 ng/mL)
- METHOD_DESCRIPTION: percent inhibition of viability; higher = more inhibition
- MEASUREMENT_CONTEXT: 72 h; 1 nM
MEASURED_PROPERTY: percent inhibition of viability (%)

{"COMPOUND": "C[C@@H](C(=O)O)c1ccc(-c2ccccc2)c(F)c1 [Tarenflurbil] (max concentration tested 10000 nM)", "SYSTEM_TESTED": "IMC-1 (IL-2 20 ng/mL)", "MEASURED": -1.05}
{"COMPOUND": "COc1cccc2c1C(=O)c1c(O)c3c(c(O)c1C2=O)C[C@@](O)(/C(CO)=N/NC(=O)CCCCCN1C(=O)C=CC1=O)C[C@@H]3O[C@H]1C[C@H](N)[C@H](O)[C@H](C)O1 [Aldoxorubicin] (max concentration tested 1000 nM)", "SYSTEM_TESTED": "IMC-1 (IL-2 20 ng/mL)", "MEASURED": -4.51}
{"COMPOUND": "CNC(=O)c1ccccc1Sc1ccc2c(/C=C/c3ccccn3)n[nH]c2c1 [Axitinib] (max concentration tested 10000 nM)", "SYSTEM_TESTED": "IMC-1 (IL-2 20 ng/mL)", "MEASURED": -1.86}
{"COMPOUND": "CC(C)NC[C@@H](C(=O)N1CCN(c2ncnc3c2[C@H](C)C[C@H]3O)CC1)c1ccc(Cl)cc1 [Ipatasertib] (max concentration tested 10000 nM)", "SYSTEM_TESTED": "IMC-1 (IL-2 20 ng/mL)", "MEASURED": 0.54}
{"COMPOUND": "Cc1c(CN2CCN(C(=O)[C@H](C)O)CC2)sc2c(N3CCOCC3)nc(-c3cnc(N)nc3)nc12 [Apitolisib] (max concentration tested 10000 nM)", "SYSTEM_TESTED": "IMC-1 (IL-2 20 ng/mL)", "MEASURED": -4.85}
{"COMPOUND": "CC(C)Oc1cc(Nc2nc(N[C@@H](C)c3ccc(F)cn3)ncc2Cl)n[nH]1 [AZ-23] (max concentration tested 1000 nM)", "SYSTEM_TESTED": "IMC-1 (IL-2 20 ng/mL)", "MEASURED": 2.7}

Where do these numbers come from? They come from the supplement of paper PMC5908809.
